- System: 126254-015-R-J1-PDC complex spheroid growth, % test/control
- experimental protocol: Anticancer human tumor 126254-015-R-J1-PDC patient-derived soft tissue sarcoma cell line growth inhibition [Asc]
- condition parameters: second compound 0.316 µM; first compound 0.1 µM; stronger effect = lower value
endpoint name: viability, T/C (%)
Give bare numbers, in %.

Read off the recorded viability, T/C for COc1c(OCCCN2CCOCC2)ccc2c3n(c(=NC(=O)c4cnc(N)nc4)nc12)CCN3 + CNC(C)C(=O)NC1CN(S(=O)(=O)c2cccc(S(=O)(=O)N3CCC4CCC(C(=O)NC(c5ccccc5)c5ccccc5)N4C(=O)C(NC(=O)C(C)NC)C3)c2)CCC2CCC(C(=O)NC(c3ccccc3)c3ccccc3)N2C1=O
29.1

###

- Test system: 126254-015-R-J1-PDC complex spheroid growth, % test/control
- experimental protocol: Anticancer human tumor 126254-015-R-J1-PDC cell line growth inhibition [Asc];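 also: spheroids exposed to compound for seven days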;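 as to viability, T/C: 100% = DMSO vehicle control wells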
- condition parameters: second compound 1 µM; first compound 0.1 µM; stronger effect = lower value
endpoint name: viability, T/C (%)
Give bare numbers, in %.

| compound | viability, T/C [%] |
| --- | --- |
| CNC(C)C(=O)NC1CN(S(=O)(=O)c2cccc(S(=O)(=O)N3CCC4CCC(C(=O)NC(c5ccccc5)c5ccccc5)N4C(=O)C(NC(=O)C(C)NC)C3)c2)CCC2CCC(C(=O)NC(c3ccccc3)c3ccccc3)N2C1=O (stereo unspecified) + Cc1c(S(C)(=O)=O)c(-c2cc(F)cc(N3CCN(c4ccc(NS(=O)(=O)c5ccc(NC(CCN6CCC(C(=O)OCCCP(=O)(O)O)CC6)CSc6ccccc6)c(S(=O)(=O)C(F)(F)F)c5)cc4)CC3)c2)c(-c2ccc(Cl)cc2)n1C(C)C | 47.9 |
| C=CC(=O)N1CCN(c2nc(=O)n(-c3c(C)ccnc3C(C)C)c3nc(-c4c(O)cccc4F)c(F)cc23)C(C)C1 (stereo unspecified) + Cc1c(S(C)(=O)=O)c(-c2cc(F)cc(N3CCN(c4ccc(NS(=O)(=O)c5ccc(NC(CCN6CCC(C(=O)OCCCP(=O)(O)O)CC6)CSc6ccccc6)c(S(=O)(=O)C(F)(F)F)c5)cc4)CC3)c2)c(-c2ccc(Cl)cc2)n1C(C)C | 89 |
| C#Cc1c(F)ccc2cc(O)cc(-c3ncc4c(N5CC6CCC(C5)N6)nc(OCC56CCCN5CC(F)C6)nc4c3F)c12 (stereo unspecified) + CNC(C)C(=O)NC1CN(S(=O)(=O)c2cccc(S(=O)(=O)N3CCC4CCC(C(=O)NC(c5ccccc5)c5ccccc5)N4C(=O)C(NC(=O)C(C)NC)C3)c2)CCC2CCC(C(=O)NC(c3ccccc3)c3ccccc3)N2C1=O | 49.5 |
| O=C(c1ccc(F)c(F)c1Nc1ccc(I)cc1F)N1CC(O)([C@@H]2CCCCN2)C1 + CNC(C)C(=O)NC1CN(S(=O)(=O)c2cccc(S(=O)(=O)N3CCC4CCC(C(=O)NC(c5ccccc5)c5ccccc5)N4C(=O)C(NC(=O)C(C)NC)C3)c2)CCC2CCC(C(=O)NC(c3ccccc3)c3ccccc3)N2C1=O | 49.3 |
| O=C(c1cc(Cc2n[nH]c(=O)c3ccccc23)ccc1F)N1CCN(C(=O)C2CC2)CC1 + Cc1c(S(C)(=O)=O)c(-c2cc(F)cc(N3CCN(c4ccc(NS(=O)(=O)c5ccc(NC(CCN6CCC(C(=O)OCCCP(=O)(O)O)CC6)CSc6ccccc6)c(S(=O)(=O)C(F)(F)F)c5)cc4)CC3)c2)c(-c2ccc(Cl)cc2)n1C(C)C | 72.8 |

Read off the recorded viability, T/C for Cn1ncnc1[C@H]1c2n[nH]c(=O)c3cc(F)cc(c23)N[C@@H]1c1ccc(F)cc1 + Cc1c(S(C)(=O)=O)c(-c2cc(F)cc(N3CCN(c4ccc(NS(=O)(=O)c5ccc(NC(CCN6CCC(C(=O)OCCCP(=O)(O)O)CC6)CSc6ccccc6)c(S(=O)(=O)C(F)(F)F)c5)cc4)CC3)c2)c(-c2ccc(Cl)cc2)n1C(C)C
61.6

###

- Test system: 126254-015-R-J1-PDC complex spheroid growth, % test/control
- experimental protocol: Anticancer human tumor 126254-015-R-J1-PDC cell line growth inhibition [Asc];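 also: spheroids exposed to compound for seven days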
- condition parameters: curve of first compound; second compound 3 µM
- Description: Multicellular complex tumor spheroid response to apoptosis pathway targeting inhibitors Alrizomadlin, Pelcitoclax, and Dasminapant in combination with a variety of drugs and investigational agents in selected tumor cell lines […] Compounds. […] If the clinical Cmax for an agent had not been determined, the highest concentration tested was 10 microM. […]
For each of the compounds below, state its IC50.
Numbers only, in nM.

| compound | IC50 (nM) |
| --- | --- |
| C=C(F)C(=O)N1CCN(c2nc(OCC3CCCN3C)nc3c2CCN(c2cccc4cccc(Cl)c24)C3)CC1CC#N (centres undefined) + CCN1C(C(=O)NC23CCC(C(=O)O)(CC2)CC3)C(c2cccc(Cl)c2F)C2(C(=O)Nc3cc(Cl)ccc32)C12CCCCC2 | 2920 |

Lab note: next compound to report on.
Jot down IC50 (126254-015-R-J1-PDC complex spheroid growth, % test/control) of COc1c(OCCCN2CCOCC2)ccc2c3n(c(=NC(=O)c4cnc(N)nc4)nc12)CCN3 + CCN1C(C(=O)NC23CCC(C(=O)O)(CC2)CC3)C(c2cccc(Cl)c2F)C2(C(=O)Nc3cc(Cl)ccc32)C12CCCCC2 .
51

###

- Test system: 126254-015-R-J1-PDC complex spheroid growth, % test/control
- experimental protocol: Anticancer human tumor 126254-015-R-J1-PDC cell line growth inhibition [Asc];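 also: spheroids exposed to compound for seven days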;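 as to viability, T/C: 100% = DMSO vehicle control wells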
- condition parameters: second compound 0.3 µM; first compound 0.00316 µM; stronger effect = lower value
For each of the compounds below, state its viability, T/C.
Numbers only, in %.

| compound | viability, T/C [%] |
| --- | --- |
| CNC(C)C(=O)NC1CN(S(=O)(=O)c2cccc(S(=O)(=O)N3CCC4CCC(C(=O)NC(c5ccccc5)c5ccccc5)N4C(=O)C(NC(=O)C(C)NC)C3)c2)CCC2CCC(C(=O)NC(c3ccccc3)c3ccccc3)N2C1=O (stereo unspecified) + CCN1C(C(=O)NC23CCC(C(=O)O)(CC2)CC3)C(c2cccc(Cl)c2F)C2(C(=O)Nc3cc(Cl)ccc32)C12CCCCC2 | 96 |
| O=C(c1ccc(F)c(F)c1Nc1ccc(I)cc1F)N1CC(O)([C@@H]2CCCCN2)C1 + CCN1C(C(=O)NC23CCC(C(=O)O)(CC2)CC3)C(c2cccc(Cl)c2F)C2(C(=O)Nc3cc(Cl)ccc32)C12CCCCC2 | 107 |
| COc1c(OCCCN2CCOCC2)ccc2c3n(c(=NC(=O)c4cnc(N)nc4)nc12)CCN3 + CCN1C(C(=O)NC23CCC(C(=O)O)(CC2)CC3)C(c2cccc(Cl)c2F)C2(C(=O)Nc3cc(Cl)ccc32)C12CCCCC2 | 89.3 |
| Cn1ncnc1[C@H]1c2n[nH]c(=O)c3cc(F)cc(c23)N[C@@H]1c1ccc(F)cc1 + CCN1C(C(=O)NC23CCC(C(=O)O)(CC2)CC3)C(c2cccc(Cl)c2F)C2(C(=O)Nc3cc(Cl)ccc32)C12CCCCC2 | 104 |
| NC1CCC(NC2CC2c2ccccc2)CC1 (stereo unspecified) + CCN1C(C(=O)NC23CCC(C(=O)O)(CC2)CC3)C(c2cccc(Cl)c2F)C2(C(=O)Nc3cc(Cl)ccc32)C12CCCCC2 | 82.7 |

Read off the recorded viability, T/C for CCN1CCN(Cc2ccc(Nc3ncc(F)c(-c4cc(F)c5nc(C)n(C(C)C)c5c4)n3)nc2)CC1 + CCN1C(C(=O)NC23CCC(C(=O)O)(CC2)CC3)C(c2cccc(Cl)c2F)C2(C(=O)Nc3cc(Cl)ccc32)C12CCCCC2
89

###

- Tested on: 126254-015-R-J1-PDC complex spheroid growth, % test/control
- experimental protocol: Anticancer human tumor 126254-015-R-J1-PDC cell line growth inhibition [Asc];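 also: spheroids exposed to compound for seven days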;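 as to viability, T/C: 100% = DMSO vehicle control wells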
- condition parameters: second compound 0.1 µM; first compound 0.00316 µM; stronger effect = lower value
For each of the molecules below, state its viability, T/C.
Give bare numbers, in %.

| molecule | system under test | readout units | viability, T/C |
| --- | --- | --- | --- |
| O=C(c1ccc(F)c(F)c1Nc1ccc(I)cc1F)N1CC(O)([C@@H]2CCCCN2)C1 + CNC(C)C(=O)NC1CN(S(=O)(=O)c2cccc(S(=O)(=O)N3CCC4CCC(C(=O)NC(c5ccccc5)c5ccccc5)N4C(=O)C(NC(=O)C(C)NC)C3)c2)CCC2CCC(C(=O)NC(c3ccccc3)c3ccccc3)N2C1=O | 126254-015-R-J1-PDC complex spheroid growth, % test/control | % | 59.7 |

Read off the recorded viability, T/C for CNC(C)C(=O)NC1CN(S(=O)(=O)c2cccc(S(=O)(=O)N3CCC4CCC(C(=O)NC(c5ccccc5)c5ccccc5)N4C(=O)C(NC(=O)C(C)NC)C3)c2)CCC2CCC(C(=O)NC(c3ccccc3)c3ccccc3)N2C1=O (configuration not stated) + Cc1c(S(C)(=O)=O)c(-c2cc(F)cc(N3CCN(c4ccc(NS(=O)(=O)c5ccc(NC(CCN6CCC(C(=O)OCCCP(=O)(O)O)CC6)CSc6ccccc6)c(S(=O)(=O)C(F)(F)F)c5)cc4)CC3)c2)c(-c2ccc(Cl)cc2)n1C(C)C
83
